Recorded pIC50 values for a group of compounds are listed next.
target: CHUK (IKK alpha) (Homo sapiens, UniProt O15111); construct: purchased Life Technologies (assay performed by the vendor); test: Adapta IKKα assay (TR-FRET ADP formation, Life Technologies); type: biochemical; settings: Adapta assay (second line of an example)
Sequence (O15111 whole entry): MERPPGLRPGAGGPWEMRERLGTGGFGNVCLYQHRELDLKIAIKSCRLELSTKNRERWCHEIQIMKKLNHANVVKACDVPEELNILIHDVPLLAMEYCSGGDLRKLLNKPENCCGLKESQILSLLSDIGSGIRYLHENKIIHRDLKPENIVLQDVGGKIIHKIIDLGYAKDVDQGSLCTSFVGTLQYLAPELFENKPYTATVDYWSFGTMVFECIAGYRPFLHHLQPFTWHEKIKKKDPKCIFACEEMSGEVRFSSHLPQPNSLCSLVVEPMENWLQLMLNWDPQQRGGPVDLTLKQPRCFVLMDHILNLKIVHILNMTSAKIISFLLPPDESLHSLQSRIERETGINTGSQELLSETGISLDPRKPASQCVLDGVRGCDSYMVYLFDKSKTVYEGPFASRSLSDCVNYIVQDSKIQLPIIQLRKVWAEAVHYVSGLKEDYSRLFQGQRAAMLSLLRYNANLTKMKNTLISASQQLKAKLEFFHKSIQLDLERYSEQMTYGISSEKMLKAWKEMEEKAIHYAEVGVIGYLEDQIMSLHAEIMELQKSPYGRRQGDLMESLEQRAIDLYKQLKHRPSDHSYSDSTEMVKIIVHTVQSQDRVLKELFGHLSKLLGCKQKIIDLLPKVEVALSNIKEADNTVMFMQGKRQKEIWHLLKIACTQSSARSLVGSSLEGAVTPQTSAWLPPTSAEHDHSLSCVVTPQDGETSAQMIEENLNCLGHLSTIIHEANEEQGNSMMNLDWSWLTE
Note on units: pIC50 is unitless, being -log10 of a concentration expressed in mol/L.

{"columns": ["smiles_str", "assayed_system", "measured_number"],
 "data": [
  ["Nc1n[nH]c2ccc(-c3ccnc4[nH]c(CNC5CCCCC5)cc34)cc12", "CHUK (IKK alpha) (Homo sapiens, UniProt O15111)", 8.22]
]}

Next item in the queue.
Can you share its pIC50? I mean this compound: Nc1n[nH]c2c(C#CC3CC3)cc(-c3ccnc4[nH]ccc34)cc12 8.70

Data provenance is patent US20250304576A1.
